Assay: Stability of compound in PBS at pH 6.5 assessed as half life by LC-MS analysis
Type: physicochemical
Recorded Metric: half-life (h)

Compound | Reported
CC(OC(=O)C[C@@H](N)CCCCN)OC(=O)N1CCC(OC(=O)C(O)(c2ccccc2)c2ccccc2)CC1.Cl.Cl (stereo partly specified) | 29.1

* * *

Experiment: Stability in Crl Wistar Han rat lung homogenate at pH 6.8 assessed as half life by mass spectroscopic analysis
Format: ADME, tissue-based

Compound | Display Unit | half-life
CC(OC(=O)C[C@@H](N)CCCCN)OC(=O)N1CCC(OC(=O)C(O)(c2ccccc2)c2ccccc2)CC1.Cl.Cl (stereo partly specified) | h | 3.1

* * *

Assay: Stability of compound in PBS at pH 7.4 assessed as half life by LC-MS analysis
Format: physicochemical
Recorded Metric: half-life (h)

Compound | Recorded Metric | Reported
CC(OC(=O)C[C@@H](N)CCCCN)OC(=O)N1CCC(OC(=O)C(O)(c2ccccc2)c2ccccc2)CC1.Cl.Cl (stereo partly specified) | half-life | 5.9

* * *

Experiment: Plasma concentration in Crl Sprague-Dawley rat at 0.2 mg/kg, IT measured at 0.5 hrs by LC-MS/MS analysis
Assay type: ADME, organism-based
Recorded Metric: concentration at 0.5 h

Molecule | Reported
CC(OC(=O)[C@H](NC(=O)[C@@H](N)CCCCN)C(C)(C)C)OC(=O)N1CCC(OC(=O)C(O)(c2ccccc2)c2ccccc2)CC1.Cl.Cl (stereo partly specified) | 1.63 ng/mL

* * *

Experiment: Plasma concentration in Crl Sprague-Dawley rat at 0.2 mg/kg, IT measured at 1 hr by LC-MS/MS analysis
Type: ADME, organism-based

Compound | Display Unit | concentration at 1 h
CC(OC(=O)[C@H](NC(=O)[C@@H](N)CCCCN)C(C)(C)C)OC(=O)N1CCC(OC(=O)C(O)(c2ccccc2)c2ccccc2)CC1.Cl.Cl (stereo partly specified) | ng/mL | 2.1
